Origin of values: patent US5688787A

# reported change in vivo at 5 mg/kg; entries follow
Test system: Hyperlipidemic Hamster
Assay: In Vivo Assay of Hypolipidemic Agents Using the Hyperlipidemic Hamster
Settings: Mesocricetus auratus, po, 168 h, 5 mg/kg once daily oral, 7 days; percent change versus control, negative = lowering; read-out: % Reduction (in vivo) Serum Cholest.

compound | change in vivo at 5 mg/kg, %
COc1ccc([C@@H]2[C@@H](CCCc3ccccc3)C(=O)N2c2ccc(OC)cc2)cc1 | -21.5
COc1ccc(C2C(CCCc3ccccc3)C(=O)N2c2ccc(OC)cc2)cc1 (stereo not shown) | 0
COc1ccc([C@@H]2[C@H](CCCc3ccccc3)C(=O)N2c2ccc(OC)cc2)cc1 | -15
COc1ccc(N2C(=O)[C@@H](CCCc3ccccc3)[C@H]2c2ccc(O)cc2)cc1 (relative stereo) | -25

----------
# reported inhibition at 10 µM; entries follow
Biological target: ACAT (Rattus norvegicus, UniProt Q7TQM4)
Construct: Rat liver microsomes are used as the source of ACAT; from tissue; host or cells: rat liver microsomes
Sequence (Q7TQM4 whole entry): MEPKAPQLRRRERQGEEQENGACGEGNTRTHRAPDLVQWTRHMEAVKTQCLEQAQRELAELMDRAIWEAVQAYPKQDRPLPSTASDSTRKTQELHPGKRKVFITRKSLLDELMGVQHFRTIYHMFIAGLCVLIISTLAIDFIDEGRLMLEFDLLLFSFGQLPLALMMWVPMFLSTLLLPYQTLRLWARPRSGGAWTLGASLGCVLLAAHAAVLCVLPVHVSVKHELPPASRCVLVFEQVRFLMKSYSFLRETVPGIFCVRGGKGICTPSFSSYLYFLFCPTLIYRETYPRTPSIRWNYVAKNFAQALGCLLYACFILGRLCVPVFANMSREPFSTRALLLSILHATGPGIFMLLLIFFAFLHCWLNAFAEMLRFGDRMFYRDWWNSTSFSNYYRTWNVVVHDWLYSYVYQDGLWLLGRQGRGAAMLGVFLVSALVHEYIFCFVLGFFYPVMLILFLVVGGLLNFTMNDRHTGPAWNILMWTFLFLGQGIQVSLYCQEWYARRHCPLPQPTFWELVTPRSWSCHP
Test: ACAT Assay (in vitro)
Format: biochemical
Conditions: Conc. 10 µM; negative = apparent stimulation; read-out: ACAT (in vitro) % Inhib.
quantity.kind: inhibition at 10 µM (%)

molecule | study.target | quantity.unit | quantitative.result
CC[C@@]1(CCCc2ccccc2)C(=O)N(c2ccc(OC)cc2)[C@@H]1/C=C/c1ccccc1 (relative stereo) [Example 3] | ACAT (Rattus norvegicus, UniProt Q7TQM4) | % | 56
COc1ccc(N2C(=O)[C@@H](CCCc3ccccc3)[C@@H]2C=Cc2ccccc2)cc1 (relative stereo) [Example 1K] | ACAT (Rattus norvegicus, UniProt Q7TQM4) | % | -70
COc1ccc(N2C(=O)[C@H](CCCc3ccccc3)[C@H]2c2ccco2)cc1 (relative stereo) [Example 1BD] | ACAT (Rattus norvegicus, UniProt Q7TQM4) | % | 17
COc1ccc(N2C(=O)[C@H](CCCc3ccccc3)[C@@H]2c2ccc(C(F)(F)F)cc2)cc1 (relative stereo) [Example 1BH] | ACAT (Rattus norvegicus, UniProt Q7TQM4) | % | 50

----------
System: Hyperlipidemic Hamster
Experiment: In Vivo Assay of Hypolipidemic Agents Using the Hyperlipidemic Hamster
Conditions: Mesocricetus auratus, po, 168 h, 50 mg/kg once daily oral, 7 days; percent change versus control, negative = lowering; read-out: % Reduction (in vivo) Cholest. Esters
# reported change in vivo at 50 mg/kg; entries follow

compound | change in vivo at 50 mg/kg [%]
COc1ccc([C@@H]2[C@H](N(C)C)C(=O)N2c2ccccc2)cc1 (relative stereo) | 0
COc1ccc([C@@H]2[C@H](CCCc3ccccc3)C(=O)N2c2ccc(O)cc2)cc1 (relative stereo) [Example 15B] | -18
COc1ccc(N2C(=O)[C@H](CCCc3ccccc3)[C@H]2c2cc[n+]([O-])cc2)cc1 (relative stereo) | 0
COc1ccc([C@@H]2[C@@H](CCCCCc3ccccc3)C(=O)N2c2ccc(OC)cc2)cc1 (relative stereo) | -70
COc1ccc(N2C(=O)[C@H](CCCc3ccccc3)[C@H]2c2ccc(C)cc2)cc1 (relative stereo) | -21
COc1ccc(N2C(=O)[C@H](CCCc3ccccc3)[C@H]2c2ccc(O)cc2)cc1 (relative stereo) | -48
COc1ccc(N2C(=O)[C@@H](CCCc3ccccc3)[C@@H]2c2ccc(NS(C)(=O)=O)cc2)cc1 (relative stereo) [Example 25C] | -46
CCCCCCCCCC[C@]1(CC)C(=O)N(c2c(OC)cc(OC)cc2OC)[C@@H]1c1ccccc1 (relative stereo) | 0
COc1ccc(N2C(=O)[C@H](CCCc3ccccc3)[C@H]2c2ccc(N)cc2)cc1 (relative stereo) | 0
COCc1ccc([C@H]2[C@@H](CCCc3ccccc3)C(=O)N2c2ccc(OC)cc2)cc1 (relative stereo) [Example 21A] | -25
CCOC(=O)COc1ccc([C@H]2[C@@H](CCCc3ccccc3)C(=O)N2c2ccc(OC)cc2)cc1 (relative stereo) [Example 35A] | -84
COc1ccc(N2C(=O)[C@H](CCCc3ccccc3)[C@@H]2c2ccc(OC(C)C)cc2)cc1 (relative stereo) | -78
COc1ccc(N2C(=O)[C@@H](CCCc3ccccc3)[C@H]2c2ncc[nH]2)cc1 (relative stereo) | 0
COc1ccc([C@@H]2[C@@H](CCCc3ccccc3)C(=O)N2c2ccc(O)cc2)cc1 (relative stereo) [Example 10A] | -58
COc1ccc([C@@H]2[C@@H](/C=C/Cc3ccccc3)C(=O)N2c2ccc(OC)cc2)cc1 (relative stereo) | -18
COc1ccc(N2C(=O)[C@H](CCCc3ccccc3)[C@H]2c2ccncc2)cc1 (relative stereo) | -25
COc1ccc(N2C(=O)[C@@](C)(CCCCc3ccccc3)[C@@H]2c2ccccc2)cc1 (relative stereo) | 0
COC(=O)c1ccc([C@@H]2[C@@H](CCCc3ccccc3)C(=O)N2c2ccccc2)cc1 (relative stereo) | -80
COc1ccc(N2C(=O)[C@@H](CCCc3ccccc3)[C@H]2c2ccc(N)cc2)cc1 (relative stereo) | -35
COc1ccc(N2C(=O)[C@H](CCCc3ccccc3)[C@@H]2c2ccc(S)cc2)cc1 (relative stereo) | 0
CCOc1ccc([C@@H]2[C@@H](CCCc3ccccc3)C(=O)N2c2ccc(OC)cc2)cc1 (relative stereo) | -98
CC[C@]1(CCc2ccccc2)C(=O)N(c2ccc(OC)cc2)[C@H]1c1ccccc1 (relative stereo) | 31
COc1ccc(N2C(=O)[C@H](CCCc3ccccc3)[C@H]2c2ccc(OC)c(F)c2)cc1 (relative stereo) | -82
COc1ccc([C@@H]2[C@H](N(C)CCc3ccccc3)C(=O)N2c2ccccc2)cc1 (relative stereo) | -32
COc1ccc(N2C(=O)[C@@H](CCCc3ccccc3)[C@H]2c2ccc(CN3CCOCC3)cc2)cc1 (relative stereo) [Example 19A] | -34
COc1ccc([C@@H]2[C@@H](CCCc3ccccc3)C(=O)N2c2cc(F)cc(F)c2)cc1 (relative stereo) | -93
CC[C@@H]1C(=O)N(c2ccc(OC)cc2)[C@H]1C=Cc1ccccc1 (relative stereo) | -29

----------
Target: ACAT (Rattus norvegicus)
Construct: Rat liver microsomes are used as the source of ACAT; from tissue; host or cells: rat liver microsomes
Test: ACAT Assay (in vitro)
Assay type: biochemical
Details: rat liver microsomes; read-out: ACAT (in vitro) IC50
# reported IC50; entries follow
quantity.kind: IC50 (µM)

compound | quantity.kind | quantitative.result
COc1ccc([C@H]2[C@@H](CCOc3ccccc3)C(=O)N2c2ccc(OC)cc2)cc1 (relative stereo) | IC50 | 7
CC[C@@]1(CCCc2ccccc2)C(=O)N(c2c(OC)cc(OC)cc2OC)[C@H]1C=Cc1ccccc1 (relative stereo) | IC50 | 4.5
CCCCCCCCCC[C@]1(CC)C(=O)N(c2c(OC)cc(OC)cc2OC)[C@@H]1c1ccccc1 (relative stereo) | IC50 | 6.5
CCCCCCCCCCC1C(=O)N(c2c(OC)cc(OC)cc2OC)C1c1ccccc1 (stereo not shown) | IC50 | 19
COc1ccc(N2C(=O)[C@H](CCCc3ccccc3)[C@@H]2c2ccc(OCc3ccccc3)cc2)cc1 (relative stereo) | IC50 | 7
CC[C@@]1(CCCc2ccccc2)C(=O)N(c2c(OC)cc(OC)cc2OC)[C@H]1c1ccccc1 (relative stereo) | IC50 | 12
CC[C@]1(CCCc2ccccc2)C(=O)N(c2c(OC)cc(OC)cc2OC)[C@H]1C=Cc1ccccc1 (relative stereo) | IC50 | 3

----------
Target: ACAT (Rattus norvegicus, UniProt Q7TQM4)
Construct: Rat liver microsomes are used as the source of ACAT; from tissue; host or cells: rat liver microsomes
Assay: ACAT Assay (in vitro)
Assay type: biochemical
Conditions: Conc. 10 µM; negative = apparent stimulation; read-out: ACAT (in vitro) % Inhib.
Just so you know, the groups by inhibition at 10 µM go like this: small value = under -20%, mid value = from -20% up to 20%, large value = 20% and over

compound | category
CC[C@]1(CCCc2ccccc2)C(=O)N(c2ccc(OC)cc2)[C@H]1c1ccc(OC)cc1 (relative stereo) | mid value
CC[C@@]1(CCCc2ccccc2)C(=O)N(c2ccc(OC)cc2)[C@H]1c1ccc(OC)cc1 (relative stereo) | small value
COc1ccc([C@@H]2N(c3ccc(OC)cc3)C(=O)[C@]2(Cc2ccccc2)c2ccccc2)cc1 (relative stereo) | large value
COc1ccc(N2C(=O)[C@@](C)(CCCCc3ccccc3)[C@@H]2c2ccccc2)cc1 (relative stereo) | mid value
COc1ccc([C@H]2[C@@H](CCCCc3ccccc3)C(=O)N2c2ccc(OC)cc2)cc1 (relative stereo) | large value
COc1ccc(N2C(=O)[C@H](CCCc3ccccc3)[C@H]2c2ccoc2)cc1 (relative stereo) | mid value
COc1ccc(N2C(=O)[C@H](CCCc3ccccc3)[C@H]2c2ccncc2)cc1 (relative stereo) | small value
CC[C@]1(CCCc2ccccc2)C(=O)N(c2ccc(OC)cc2)[C@H]1c1ccccc1 (relative stereo) | small value
COc1ccc(N2C(=O)[C@H](CCCc3ccccc3)[C@H]2c2ccc3c(c2)OCO3)cc1 (relative stereo) | small value
COc1ccc([C@@H]2[C@@H](CCOc3ccccc3)C(=O)N2c2ccc(OC)cc2)cc1 (relative stereo) | large value
